System: TK+ VZV OKA strain
Assay: microbe, parasite or virus in culture
Type: cell-based, varicella-zoster virus
Settings: Human alphaherpesvirus 3, HEL, read-out: Antiviral Activity EC50 TK+ VZV Strain (OKA)
observable: EC50 (µM)
Record the value in µM, omitting the unit from your answer.

Exercise: State, in one line, measured EC50 of CCOP(=O)(OCC)C1CC(Cn2c(=O)c3ccccc3n(Cc3ccccc3)c2=O)ON1C (stereo not drawn) [cis-20a/trans-20a (10:90)]
Key: 31.7

Exercise: Annotate the molecule CCOP(=O)(OCC)[C@H]1C[C@H](Cn2c(=O)c3ccccc3n(Cc3ccc(F)cc3)c2=O)ON1C (relative stereo) with its measured EC50.
Key: 58.5

Exercise: Fill in EC50 for record CCOP(=O)(OCC)[C@H]1C[C@H](Cn2c(=O)c3ccccc3n(Cc3ccccc3F)c2=O)ON1C (relative stereo)
Key: 31.7

Exercise: Output EC50 of CCOP(=O)(OCC)[C@H]1C[C@H](Cn2c(=O)c3ccccc3n(Cc3ccccc3)c2=O)ON1Cc1ccccc1 (relative stereo)
Key: 14.5

----------
Test system: E. coli ATCC 25922
Test: Broth microdilution MIC/MBC
Conditions: Escherichia coli, ATCC25922, 24 h, read-out: MIC = MBC
observable: MIC
Just so you know, I need the unit written after the number.

Exercise: Name the recorded MIC of the compound listed here: CCOP(=O)(OCC)[C@H]1C[C@H](Cn2c(=O)c3ccccc3n(Cc3cccc(F)c3)c2=O)ON1C (relative stereo)
Key: 2500 µg/mL

Exercise: Quick one: give measured MIC for CCOP(=O)(OCC)[C@H]1C[C@H](Cn2c(=O)c3ccccc3n(Cc3ccc(F)cc3)c2=O)ON1C (relative stereo)
Key: 2500 µg/mL

Exercise: Item C=CCn1c(=O)c2ccccc2n(Cc2ccccc2)c1=O [24a, 3-Allyl-1-benzylquinazoline-2,4-dione] : provide MIC
Key: 2500 µg/mL

Exercise: State its MIC: C=CCn1c(=O)c2ccccc2n(Cc2cccc(F)c2)c1=O [24c]
Key: 1250 µg/mL

Exercise: Name the recorded MIC of the compound listed here: C=CCn1c(=O)c2ccccc2n(Cc2ccc(F)cc2)c1=O [24d]
Key: 2500 µg/mL

Exercise: Check the records and state MIC for CCOP(=O)(OCC)C1CC(Cn2c(=O)c3ccccc3n(Cc3cccc(F)c3)c2=O)ON1Cc1ccccc1 (stereo not shown)
Key: 1250 µg/mL

Exercise: Retrieve MIC measured for NCC[C@H](O)C(=O)N[C@@H]1C[C@H](N)[C@@H](O[C@H]2O[C@H](CN)[C@@H](O)[C@H](O)[C@H]2O)[C@H](O)[C@H]1O[C@H]1O[C@H](CO)[C@@H](O)[C@H](N)[C@H]1O [Amikacin, reference compound] and print it.
Key: 0.625 µg/mL

----------
System: TK+ VZV OKA strain
Assay: microbe, parasite or virus in culture
Assay type: cell-based, varicella-zoster virus
Details: Human alphaherpesvirus 3, HEL, read-out: Antiviral Activity EC50 TK+ VZV Strain (OKA)
I'd appreciate it if you could supply EC50 values for the items below.
Numbers only; they are read as µM.

Exercise: Report EC50, nothing else, for this compound: CCOP(=O)(OCC)C1CC(Cn2c(=O)c3ccccc3n(Cc3ccccc3F)c2=O)ON1Cc1ccccc1 (centres unmarked)
Key: 12.6

Exercise: Tell us which EC50 value is on record for C=CCn1c(=O)c2ccccc2n(Cc2ccccc2)c1=O [24a, 3-Allyl-1-benzylquinazoline-2,4-dione]
Key: 100

Exercise: Report EC50, nothing else, for this compound: CCOP(=O)(OCC)[C@H]1C[C@H](Cn2c(=O)c3ccccc3n(Cc3cccc(F)c3)c2=O)ON1C (relative stereo)
Key: 100

Exercise: Give EC50 for C=CCn1c(=O)c2ccccc2n(Cc2ccc(F)cc2)c1=O [24d]
Key: 54.7

Exercise: Please indicate EC50 recorded for O=c1[nH]c(=O)n([C@H]2C[C@H](O)[C@@H](CO)O2)cc1/C=C/Br [Brivudin, reference compound]
Key: 0.026

Exercise: Hello, please tell me recorded EC50 for this one: CCOP(=O)(OCC)C1CC(Cn2c(=O)c3ccccc3n(Cc3cccc(F)c3)c2=O)ON1Cc1ccccc1 (centres unmarked)
Key: 20

Exercise: Dear colleague, please send me the reported EC50 for CCOP(=O)(OCC)C1CC(Cn2c(=O)c3ccccc3n(Cc3ccc(F)cc3)c2=O)ON1Cc1ccccc1 (centres unmarked) when you can.
Key: 20

----------
Test system: human embryonic lung (HEL) cells
Details: minimum cytotoxic concentration causing microscopically detectable alteration of cell morphology
observable: Cytotoxicity Cell Morphology MCC

Exercise: // fetch Cytotoxicity Cell Morphology MCC given entry C=CCn1c(=O)c2ccccc2n(Cc2ccccc2)c1=O [24a, 3-Allyl-1-benzylquinazoline-2,4-dione]
Key: >100 μM

Exercise: Answer with the recorded Cytotoxicity Cell Morphology MCC for the compound listed here: CCOP(=O)(OCC)[C@H]1C[C@H](Cn2c(=O)c3ccccc3n(Cc3ccccc3)c2=O)ON1Cc1ccccc1 (relative stereo)
Key: 100 μM

Exercise: Supply reported Cytotoxicity Cell Morphology MCC belonging to this compound: CCOP(=O)(OCC)C1CC(Cn2c(=O)c3ccccc3n(Cc3ccccc3)c2=O)ON1C (stereo not drawn) [cis-20a/trans-20a (10:90)]
Key: >100 μM

Exercise: Supply recorded Cytotoxicity Cell Morphology MCC for C=CCn1c(=O)c2ccccc2n(Cc2ccccc2F)c1=O [24b] here.
Key: >100 μM

Exercise: Assign Cytotoxicity Cell Morphology MCC to the following record: O=c1[nH]c(=O)n([C@H]2C[C@H](O)[C@@H](CO)O2)cc1/C=C/Br [Brivudin, reference compound]
Key: >300 μM

Exercise: Give the measured Cytotoxicity Cell Morphology MCC for CCOP(=O)(OCC)[C@H]1C[C@H](Cn2c(=O)c3ccccc3n(Cc3cccc(F)c3)c2=O)ON1C (relative stereo)
Key: >100 μM

Exercise: Item CCOP(=O)(OCC)[C@H]1C[C@H](Cn2c(=O)c3ccccc3n(Cc3ccccc3F)c2=O)ON1C (relative stereo) : provide Cytotoxicity Cell Morphology MCC
Key: >100 μM

----------
Tested on: human embryonic lung (HEL) cells
Settings: minimum cytotoxic concentration causing microscopically detectable alteration of cell morphology
Kindly state Cytotoxicity Cell Morphology MCC for each of the entries shown.
Return type: number; implicit unit μM.

Exercise: Given the molecule CCOP(=O)(OCC)C1CC(Cn2c(=O)c3ccccc3n(Cc3ccccc3F)c2=O)ON1Cc1ccccc1 (stereo not drawn) , write its reported Cytotoxicity Cell Morphology MCC.
Key: 100

Exercise: Indicate its recorded Cytotoxicity Cell Morphology MCC; the molecule in question is CCOP(=O)(OCC)C1CC(Cn2c(=O)c3ccccc3n(Cc3cccc(F)c3)c2=O)ON1Cc1ccccc1 (stereo not drawn)
Key: 20

Exercise: Report measured Cytotoxicity Cell Morphology MCC; entry is C=CCn1c(=O)c2ccccc2n(Cc2ccc(F)cc2)c1=O [24d]
Key: 100

Exercise: Answer with reported Cytotoxicity Cell Morphology MCC of CCOP(=O)(OCC)C1CC(Cn2c(=O)c3ccccc3n(Cc3ccc(F)cc3)c2=O)ON1Cc1ccccc1 (stereo not drawn)
Key: 100
